Data provenance: patent US20250144172A1

Hi there, I'd appreciate the recorded pIC50 for every entry that follows.
biological target: human NEU2 (Homo sapiens (Human), UniProt Q9Y3R4); assay: human NEU2 sialidase inhibition; settings: read-out: NEU2 IC50; human NEU2
Sequence (Q9Y3R4 whole entry): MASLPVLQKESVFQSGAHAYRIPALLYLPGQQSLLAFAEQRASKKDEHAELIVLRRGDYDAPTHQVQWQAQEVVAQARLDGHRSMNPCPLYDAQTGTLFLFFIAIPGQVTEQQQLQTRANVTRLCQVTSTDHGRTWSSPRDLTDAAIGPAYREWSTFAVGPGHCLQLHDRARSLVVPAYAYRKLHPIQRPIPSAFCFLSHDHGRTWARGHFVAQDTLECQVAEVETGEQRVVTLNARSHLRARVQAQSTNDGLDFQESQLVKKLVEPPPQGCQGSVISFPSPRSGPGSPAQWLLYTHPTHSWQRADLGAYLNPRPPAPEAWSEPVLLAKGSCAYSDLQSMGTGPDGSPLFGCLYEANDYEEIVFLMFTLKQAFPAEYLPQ
One number for each entry, as −log10 of the molar value.

Completed entries (count: 3):
INSERT INTO assay_data (compound, measured) VALUES
  ('CC(=O)N[C@H]1C([C@@H](O)[C@@H](O)Cn2cc(OCc3ccccc3)nn2)OC(C(=O)O)=C[C@@H]1O (stereo partly shown)', 3.10),
  ('COC[C@@H](O)[C@@H](O)[C@@H]1OC(C(=O)O)=C[C@H](O)[C@H]1NC(C)=O', 3.39),
  ('CC(=O)N[C@H]1[C@H]([C@H](O)[C@H](O)CN=[N+]=[N-])OC(C(=O)O)=C[C@@H]1O', 4.51);

Reported pIC50, compound [N-]=[N+]=NC[C@@H](O)[C@@H](O)[C@@H]1OC(C(=O)O)=C[C@H](O)[C@H]1NC(=O)CO : ____
3.72

----------
molecular target: UniProt Q99519; assay: human NEU1 sialidase inhibition
Quantity: pIC50
Give bare numbers, as −log10 of the molar value.

Hi there! I need pIC50 for each item below, if you can.
1. CC(=O)N[C@@H]1C(O)C=C(C(=O)O)OC1C(O)C(O)CN=[N+]=[N-] (stereo partly drawn)
2. [N-]=[N+]=NCC(=O)N[C@@H]1C(O)C=C(C(=O)O)OC1C(O)C(O)CO (stereo partly drawn)
3. CC(=O)N[C@@H]1C(N=[N+]=[N-])C=C(C(=O)O)OC1C(O)C(O)CO (stereo partly drawn)

1: 3.21; 2: 4.54; 3: 3.44

----------
biological target: human NEU3 (Homo sapiens (Human)); experiment: human NEU3 sialidase inhibition; settings: read-out: NEU3 IC50; human NEU3
Hi there, I'd appreciate the recorded pIC50 for every entry that follows.
Answers are plain numbers, as −log10 of the molar value.

Completed entries (count: 2):
INSERT INTO assay_data (compound_structure, measured) VALUES
  ('CC(=O)N[C@H]1[C@H]([C@H](O)[C@H](O)Cn2cc(CCCO)nn2)OC(C(=O)O)=C[C@@H]1O', 3.30),
  ('CC(=O)N[C@H]1[C@H]([C@@H](O)[C@@H](O)CNC(=O)c2ccccc2)OC(C(=O)O)=C[C@@H]1O', 3.49);

Reported pIC50, compound CC(=O)N[C@H]1[C@H]([C@H](O)[C@H](O)Cn2ccnn2)OC(C(=O)O)=C[C@@H]1O : ____
4.15

----------
target: UniProt Q9UQ49; assay: human NEU3 sialidase inhibition; settings: NEU3 IC50, human NEU3
Hi there, I'd appreciate the recorded log10 of IC50 for every entry that follows.
The base-10 logarithm of IC50, taken with IC50 in µM, is what appears here.

INSERT INTO results (compound, target_or_test_system, quantity, measured) VALUES
  ('CC(=O)N[C@@H]1C(O)C=C(C(=O)O)OC1C(O)C(O)CN=[N+]=[N-] (stereo partly shown) [Compound 48]', 'UniProt Q9UQ49', 'log10 of IC50', 1.29),
  ('CC(=O)N[C@@H]1C(N)C=C(C(=O)O)OC1CNc1ccccc1 (stereo partly shown) [Compound 44]', 'UniProt Q9UQ49', 'log10 of IC50', 2.73),
  ('CC(=O)N[C@@H]1C(N=[N+]=[N-])C=C(C(=O)O)OC1C(O)C(O)CO (stereo partly shown) [Compound 37]', 'UniProt Q9UQ49', 'log10 of IC50', 1.73);

Hi there! I need log10 of IC50 for each item below, if you can.
1. CC(=O)N[C@@H]1C(N=[N+]=[N-])C=C(C(=O)O)OC1CN(Cc1ccccc1)OCc1ccccc1 (stereo partly shown) [Compound 42]
2. CC(=O)N[C@@H]1C(N)C=C(C(=O)O)OC1CNc1ccccc1 (stereo partly shown) [Compound 45]
3. CC(=O)N[C@@H]1C(N=[N+]=[N-])C=C(C(=O)O)OC1CNOCc1ccccc1 (stereo partly shown) [Compound 41]
4. [N-]=[N+]=NCC(=O)N[C@@H]1C(O)C=C(C(=O)O)OC1C(O)C(O)CO (stereo partly shown) [Compound 49]
5. CC(=O)N[C@@H]1C(O)C=C(C(=O)O)OC1CNNCc1ccc(-c2ccccc2)cc1 (stereo partly shown) [Compound 47]
6. CC(=O)N[C@@H]1C(N=[N+]=[N-])C=C(C(=O)O)OC1CNNc1ccccc1 (stereo partly shown) [Compound 43]
7. CCC(CC)O[C@@H]1CC(C(=O)O)C=C(n2cc([C@]3(O)CCC4C5CCc6cc(O)ccc6C5CC[C@@]43C)nn2)[C@H]1NC(C)=O (stereo partly shown) [Compound 29]

[1.38, 2.57, 1.38, 0.67, 1.85, 1.30, 2.54]

----------
biological target: human NEU3 (Homo sapiens (Human), UniProt Q9UQ49); experiment: human NEU3 sialidase inhibition; settings: read-out: NEU3 IC50; human NEU3
Sequence (Q9UQ49 whole entry): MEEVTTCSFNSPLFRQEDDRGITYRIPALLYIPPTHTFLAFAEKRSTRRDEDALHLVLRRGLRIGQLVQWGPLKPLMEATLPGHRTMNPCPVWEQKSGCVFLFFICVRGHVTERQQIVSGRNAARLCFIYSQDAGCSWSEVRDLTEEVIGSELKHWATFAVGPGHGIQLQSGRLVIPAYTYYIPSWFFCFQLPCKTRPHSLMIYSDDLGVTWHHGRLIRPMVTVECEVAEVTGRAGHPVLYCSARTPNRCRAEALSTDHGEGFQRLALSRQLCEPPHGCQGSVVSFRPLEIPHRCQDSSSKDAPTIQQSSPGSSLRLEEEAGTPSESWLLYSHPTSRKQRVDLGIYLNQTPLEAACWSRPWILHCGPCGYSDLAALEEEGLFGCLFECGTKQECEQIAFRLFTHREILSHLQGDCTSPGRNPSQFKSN
Hi there, I'd appreciate the recorded IC50 for every entry that follows.
One number for each entry, in µM.

Completed entries (count: 3):
INSERT INTO results (molecule, target_or_test_system, quantity, measured) VALUES
  ('CC(=O)N[C@H]1[C@H]([C@H](O)[C@H](O)Cn2cc(COc3ccccc3)nn2)OC(C(=O)O)=C[C@@H]1O', 'human NEU3 (Homo sapiens (Human), UniProt Q9UQ49)', 'IC50', 45),
  ('CCOc1cn(C[C@@H](O)[C@@H](O)[C@@H]2OC(C(=O)O)=C[C@H](O)[C@H]2NC(C)=O)nn1', 'human NEU3 (Homo sapiens (Human), UniProt Q9UQ49)', 'IC50', 300),
  ('CC(=O)N[C@H]1[C@H]([C@H](O)[C@H](O)Cn2cc(CO)nn2)OC(C(=O)O)=C[C@@H]1O', 'human NEU3 (Homo sapiens (Human), UniProt Q9UQ49)', 'IC50', 300);

Hi there! I need IC50 for each item below, if you can.
1. CC(=O)N[C@H]1[C@H]([C@H](O)[C@H](O)Cn2cc(CCO)nn2)OC(C(=O)O)=C[C@@H]1O
2. CC(=O)N[C@H]1[C@H]([C@H](O)[C@H](O)CO)OC(C(=O)O)=C[C@@H]1O [Compound 1, reference compound]

1: 400; 2: 61

----------
target: UniProt Q99519; assay: human NEU1 sialidase inhibition; details: read-out: NEU1 IC50; human NEU1
Hi there, I'd appreciate the recorded IC50 for every entry that follows.
Answers are plain numbers, in µM.

INSERT INTO measurements (compound, measured) VALUES
  ('CC(=O)N[C@H]1C([C@@H](O)[C@@H](O)Cn2cc(CCCO)nn2)OC(C(=O)O)=C[C@@H]1O (some centres unmarked) [Compound 56]', 660);

Hi there! I need IC50 for each item below, if you can.
1. CCCC(=O)NC[C@H](O)[C@H](O)[C@@H]1OC(C(=O)O)=C[C@H](O)[C@H]1NC(C)=O [Compound 6]
2. CC(=O)N[C@H]1[C@H]([C@@H](O)[C@@H](O)CNC(=O)C2CC2)OC(C(=O)O)=C[C@@H]1O [Compound 5]
3. CCOc1cn(C[C@H](O)[C@H](O)C2OC(C(=O)O)=C[C@H](O)[C@H]2NC(C)=O)nn1 (some centres unmarked) [Compound 52]

1: 32; 2: 680; 3: 170

----------
molecular target: human NEU1 (Homo sapiens (Human), UniProt Q99519); test: human NEU1 sialidase inhibition; conditions: read-out: NEU1 IC50; human NEU1
Binarize IC50 at 100 µM; below is YES, at or above is NO.

Illustrative cases are given below, each with its answer.
INSERT INTO results (molecule, label_class) VALUES
  ('CC(=O)N[C@H]1[C@H]([C@@H](O)[C@@H](O)CNC(=O)C2CCCC2)OC(C(=O)O)=C[C@@H]1O [Compound 4]', 'NO'),
  ('CC(=O)N[C@H]1C([C@@H](O)[C@@H](O)Cn2cc(-c3ccccc3)nn2)OC(C(=O)O)=C[C@@H]1O (stereo partly shown) [Compound 51]', 'NO'),
  ('CC(=O)N[C@H]1C([C@@H](O)[C@@H](O)Cn2cc(CCO)nn2)OC(C(=O)O)=C[C@@H]1O (stereo partly shown) [Compound 55]', 'NO'),
  ('CC(=O)N[C@H]1C([C@@H](O)[C@@H](O)Cn2cc(CO)nn2)OC(C(=O)O)=C[C@@H]1O (stereo partly shown) [Compound 54]', 'NO'),
  ('CC(=O)N[C@H]1[C@H]([C@@H](O)[C@@H](O)CNC(=O)CC(C)C)OC(C(=O)O)=C[C@@H]1O [Compound 7]', 'NO');

Please let me know if CC(=O)NC[C@H](O)[C@H](O)[C@@H]1OC(C(=O)O)=C[C@H](O)[C@H]1NC(C)=O [Compound 2] shows IC50 below 100 µM.
YES

Please let me know if CC(=O)N[C@H]1[C@H]([C@@H](O)[C@@H](O)CNC(=O)c2ccccc2)OC(C(=O)O)=C[C@@H]1O [Compound 3] shows IC50 below 100 µM.
YES
